meta.source: patent EP4592317A1

Each entry below lists one item and its recorded absorbance at 450 nm value.
system under test: T1, Human 4-1BB extracellular domain recombinant protein (his-tag) (human, UniProt Q07011 24-186)
T1 construct: extracellular domain; also called Human4-1BB, his-tag; human 4-1BB extracellular region recombinant protein; not shown: his-tag
measurement description: ELISA, coated human 4-1BB-his 200 ng/well; antibody 0 µg/ml (background well)
measured quantity: absorbance at 450 nm

binder="137-7 VHH-hFc recombinant antibody (Fc fusion, VHH fragment inserted into vector pFclG with human IgG1 Fc tag, expressed in HEK293F; also called CD137-7; not shown: human IgG1 Fc tag of the eukaryotic expression vector pFclG) QVQLVESGGGLVQPGGSLRLSCAASGFTLDSYAIAWFRQAPGKEREGVSCITSSGGSTNYADSVKGRFTISRDGAKNTVYLQLNSLKPEDTAIYYCAAFHRATCVILGEYDYWGQGTQVTVSS" measured_quantity="absorbance at 450 nm" numeric_value=0.081
binder="137-39 VHH-hFc recombinant antibody (Fc fusion, VHH fragment inserted into vector pFclG with human IgG1 Fc tag, expressed in HEK293F; Preparation had non-specific bands, purity about 30%; not shown: human IgG1 Fc tag of the eukaryotic expression vector pFclG) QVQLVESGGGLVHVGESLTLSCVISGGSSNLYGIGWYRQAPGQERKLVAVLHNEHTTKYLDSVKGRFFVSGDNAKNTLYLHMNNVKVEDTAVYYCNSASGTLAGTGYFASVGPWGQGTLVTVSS" measured_quantity="absorbance at 450 nm" numeric_value=0.128
binder="137-36 VHH-hFc recombinant antibody (Fc fusion, VHH fragment inserted into vector pFclG with human IgG1 Fc tag, expressed in HEK293F; not shown: human IgG1 Fc tag of the eukaryotic expression vector pFclG) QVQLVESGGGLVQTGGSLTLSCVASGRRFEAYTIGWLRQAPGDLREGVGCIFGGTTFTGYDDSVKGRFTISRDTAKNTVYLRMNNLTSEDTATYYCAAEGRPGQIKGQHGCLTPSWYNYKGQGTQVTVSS" measured_quantity="absorbance at 450 nm" numeric_value=0.112
binder="137-18 VHH-hFc recombinant antibody (Fc fusion, VHH fragment inserted into vector pFclG with human IgG1 Fc tag, expressed in HEK293F; also called CD137-18; not shown: human IgG1 Fc tag of the eukaryotic expression vector pFclG) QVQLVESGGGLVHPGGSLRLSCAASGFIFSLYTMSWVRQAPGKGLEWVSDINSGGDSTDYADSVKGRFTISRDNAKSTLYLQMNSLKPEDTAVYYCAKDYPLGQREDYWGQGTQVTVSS" measured_quantity="absorbance at 450 nm" numeric_value=0.119
binder="137-16 VHH-hFc recombinant antibody (Fc fusion, VHH fragment inserted into vector pFclG with human IgG1 Fc tag, expressed in HEK293F; Preparation had non-specific bands, purity >70%; also called CD137-16; not shown: human IgG1 Fc tag of the eukaryotic expression vector pFclG) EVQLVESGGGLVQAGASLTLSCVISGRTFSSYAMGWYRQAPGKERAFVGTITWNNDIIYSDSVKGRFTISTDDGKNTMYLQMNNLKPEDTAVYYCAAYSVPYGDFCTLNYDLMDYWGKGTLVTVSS" measured_quantity="absorbance at 450 nm" numeric_value=0.096
binder="137-1 VHH-hFc recombinant antibody (Fc fusion, also called CD137-1; not shown: human IgG1 Fc tag of the eukaryotic expression vector pFclG) QVQLVESGGGLVQPGGSLRLSCVASGFVFSTVTMGWGRQVPGKEFEWVSGVSSEGITDYADSVKGRFTISRDNAKNTVYLEMNSLKSEDTAEYYCLIGGRWSFGTWGQGTQVTVSS" measured_quantity="absorbance at 450 nm" numeric_value=0.093
binder="137-12 VHH-hFc recombinant antibody (Fc fusion, VHH fragment inserted into vector pFclG with human IgG1 Fc tag, expressed in HEK293F; not shown: human IgG1 Fc tag of the eukaryotic expression vector pFclG) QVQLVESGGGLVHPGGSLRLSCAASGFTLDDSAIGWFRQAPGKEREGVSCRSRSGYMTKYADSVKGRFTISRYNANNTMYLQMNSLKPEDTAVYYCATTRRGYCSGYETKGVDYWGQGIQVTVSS" measured_quantity="absorbance at 450 nm" numeric_value=0.087
